- target_of_assay: HR2 peptide having the amino acid sequence of SEQ ID NO:33 (HIV-1)
- test_method_notes: surface plasmon resonance (Biacore protein chip assay)
endpoint_label: pKd
Numbers only, as −log10 of the molar value.

Query string: Recorded pKd of QARQLVSGLVQQQNNILRALEATQHAVQALVWGVKQLQARVLALERYIK (modifications not checked) [synthetic peptide having the amino acid sequence of SEQ ID NO:35] , please.
Result string: 7.66
